Quick list: nuclei count, normalised per entry.
- test_protocol: p53 stabilisation in HPV-positive human cells, imaging, p53-positive nuclei imaging, 24 h, 48 h (AID 1508601)
- condition_summary: 24/48 h, measured here: cell number at 24 h, Library stock concentration: 3.33 mM
The campaign covered roughly 5,700 compounds. About 85 (1%) were called active. The sample holds actives, similar compounds and a random draw of the others, so the mix is not that of the screen.
// note: answer is a bare numeric in %

Examples from the recorded data:
| compound | nuclei count, normalised [%] |
| --- | --- |
| Cc1sc2c(c1C)C(c1ccc(Cl)cc1)=NC(CC(=O)Nc1ccc(O)cc1)c1nnc(C)n1-2 (stereo unspecified) | 119 |
| O=c1[nH]c2ccc(Cl)cc2c(NC2CN3CCC2CC3)c1-c1nc2ccccc2[nH]1 (stereo unspecified) | 52.7 |
| CCCCCCCCCCCC[N+](C)(C)CCOc1ccccc1 | 115 |
| N#CC(OC1OC(COC2OC(CO)C(O)C(O)C2O)C(O)C(O)C1O)c1ccccc1 (stereo unspecified) | 95.4 |
| Cc1sc2c(c1C)C(c1ccc(Cl)cc1)=NC(CC(=O)OC(C)(C)C)c1nnc(C)n1-2 (stereo unspecified) | 128 |

# nuclei count, normalised of Cc1sc2c(c1C)C(c1ccc(Cl)cc1)=NC(CC(N)=O)c1nnc(C)n1-2 (stereo unspecified) = 123

# credit: PubChem BioAssay AID1508601
